test system: CAKI-1 renal; experiment: NCI tumour cell line growth inhibition, 48 h
PROPERTY_MEASURED: TGI

Answered examples (2):
OCC#Cc1ccccc1C#Cc1ccc(C#Cc2ccccc2)cc1    > 100 µM
S=c1[nH]nc(CCCCCCCCc2n[nH]c(=S)o2)o1    > 100 µM

Report TGI for COC(=O)C1CCC(=O)N1/C(C)=N/NC(=O)Nc1ccc(Cl)c(Cl)c1 (centres undefined) > 100 µM

Answer with reported TGI of COc1cc(N(CCC#N)CCC#N)ccc1/C(N=Nc1ccc(C(=O)O)cc1)=N/NC(=O)c1cc(Br)ccc1O > 150 µg/mL

Answer with the recorded TGI of CC(C)=CCc1c2c(c(O)c3c(=O)c4c(oc13)-c1ccc(O)cc1OC4C=C(C)C)C=CC(C)(C)O2 (centres undefined) only. 34.4 µM

Answer with the recorded TGI for the compound listed here: COC(=O)c1ccccc1C1CN=NC12Cc1c(C)ccc(C)c1C2=O (centres undefined) > 100 µM

State its TGI: CC1(C)CC[C@]2(C(=O)O)CC[C@]3(C)C(=CC[C@@H]4[C@@]5(C)C/C(=C/c6ccco6)C(=O)C(C)(C)[C@@H]5CC[C@]43C)[C@@H]2C1 15.7 µM

Provide TGI value for the following compound: COc1ccc(/C=C/C(C)=N/OCC(=O)Nc2ccc(Cl)cc2)cc1 27 µM

For COC(=O)[C@H](Cc1cn(C)cn1)NC(=O)[C@@H](NC(=O)Nc1cc(C(F)(F)F)cc(C(F)(F)F)c1)C(C)C , write its TGI. > 10 µM

---

system: HS 578T breast; assay: NCI tumour cell line growth inhibition, 48 h; in the data active = GI50 below about 0.43 µM; inactive = the rest
Give one outcome, nothing more. List: active, inactive

COc1ccc(/C=C\c2cc(OC)c(OC)c(OC)c2)c(NS(=O)(=O)c2ccc(C(C)(C)C)cc2)c1O    inactive
COC(=O)c1ccc2[nH]c(O)c(C(=Nc3ccc(N(C)C(=O)CN4CCN(C)CC4)cc3)c3ccccc3)c2c1    active
O=c1nc2[nH]c3c(-c4n[nH]c(=O)[nH]c4=O)cccc3c2n[nH]1    inactive
Cn1ccnc1C(=O)/C=C/c1ccc(C(=O)Nc2c(F)c(F)c(F)c(F)c2F)cc1    inactive

How did this test come out for N#CC(NC(=O)CCl)=C(Cl)Cl ? inactive

// return assay outcome for CCN(CC)CCOc1ccc2c(C)c(C(=O)OC)oc2c1C(=O)/C=C/c1ccc(OC)cc1 inactive

Recorded test call requested for C=CCN=C(N/N=C/c1ccc([N+](=O)[O-])o1)NS(=O)(=O)c1cc(C(=O)Nc2ccccc2)c(Cl)cc1SCC(N)=O inactive

Please state the recorded outcome for this compound: O=C(N/N=C/c1ccc(F)cc1)c1ccc(C(F)(F)F)nc1Nc1cccc(C(F)(F)F)c1 inactive

I'd appreciate the recorded outcome for COc1cc(OC)cc(-c2ccc(-c3ccc(C(=N)N)cn3)s2)c1 from this test. inactive

---

Entries annotated with measured TGI
tested on: SK-MEL-2 melanoma; assay: NCI tumour cell line growth inhibition, 48 h

Please give the documented TGI of Cc1ncc(CSC(=N)N)n1Cc1ccccc1 > 100 µM

Indicate its recorded TGI; the molecule in question is CC(=O)N[C@@H](Cc1ccc(O)cn1)C(=O)NC1CCCCC1 > 100 µM

Specify TGI for CN(C)c1ccc(N=C2C=CC(=C(C#N)C#N)c3ccccc32)cc1 and stop. 6.7 µM

For the molecule C=C(Cn1c2ccccc2c(=O)c2ccccc21)c1ccc(C(=O)Nc2ccccc2N)cc1 , give its reported TGI. > 100 µM

Answer with the recorded TGI for the molecule listed here: COc1cc2cc3c(c(O)c2c(O)c1-c1c(OC)cc2cc4c(c(O)c2c1O)C(=O)O[C@H](C)C4)C(=O)O[C@H](C)C3 > 100 µM

---

system: HL-60(TB) leukemia; assay: NCI tumour cell line growth inhibition, 48 h
Each item that follows carries a reported GI50.

Some molecules with known GI50 results, for comparison:
N#CCC1(n2cc(-c3ncnc4[nH]ccc34)cn2)CN(C2CCN(C(=O)c3ccnc(C(F)(F)F)c3F)CC2)C1    > 100 µM
N/C(=N\C(N)=N\c1nc2ccccc2s1)c1cnccn1    2.68 µM
COc1cc2cc3c(c(O)c2c(O)c1-c1c(OC)cc2cc4c(c(O)c2c1O)C(=O)O[C@H](C)C4)C(=O)O[C@H](C)C3    95.9 µM

Answer with reported GI50 of COc1ccc(OCC(O)CN2CCN(c3ccc(Cl)cc3)CC2)cc1 (centres undefined) > 100 µM

Hello, please tell me recorded GI50 for this one: CCN1CCN(c2nc(NNC(=O)c3ccccc3)nc(N3CCN(C(c4ccccc4)c4ccccc4)CC3)n2)CC1 1.76 µM

Using the record for OCCCCC#Cc1ccccc1C#Cc1ccc(C(F)(F)F)cc1 , state its measured GI50. 17.7 µM

---

test system: UO-31 renal; test: NCI tumour cell line growth inhibition, 48 h
PROPERTY_MEASURED: TGI

CC1=CCN(c2ccccn2)OC1c1ccccc1 (stereo unspecified)    > 100 µM
O=C(Oc1ccc2c(c1)CN(Cc1ccccc1)CO2)c1ccccc1    31.8 µM
NC(=O)c1ncn(C2OC(CO)C(O)C2O)c1N (stereo unspecified)    > 100 µM
C/C(CC(=O)Nc1cccc([N+](=O)[O-])c1)=N\NC(=O)C[n+]1ccccc1    > 100 µM

Complete the entry with TGI for O=c1cccccc1[O-].O=c1cccccc1[O-].O=c1cccccc1[O-].[Sm+3] > 100 µM

Indicate its recorded TGI; the molecule in question is CN(/N=C\c1ccc2ccccc2c1)C1=NCCCN1 25.2 µM

Answer with the recorded TGI of CSc1nc[nH]c1C(N)=S only. > 100 µM

Please report the measured TGI for COc1ccc(C23OCC(Cc4cc(OC)c(OC)cc42)C3CO)cc1OC (stereo unspecified) > 100 µM

Indicate the recorded TGI value for this molecule: C(=C\c1c2oc(-c3ccccc3)cc(-c3ccccc3)c-2c2ccccc12)/C=C1\c2ccccc2-c2c(-c3ccccc3)cc(-c3ccccc3)[o+]c21 > 100 µM

For the molecule Cc1cc2occ(S(=O)(=O)NC(=O)Nc3ccc(Cl)cc3)c(=O)c2c(=O)o1 , give its reported TGI. > 100 µM

Tell me TGI reported for COc1cc(/C=C\c2cc(OC)c(OC)c(OC)c2)cc(NS(=O)(=O)c2ccc(Cl)cc2)c1OC > 100 µM

Consider the molecule COC(=O)CC1CC2(C(=O)OC)c3[nH]c4ccccc4c3CCN2C1=O (stereo unspecified) and give its recorded TGI. > 100 µM

For the molecule CC1(Cl)CC(C)(/C=C/Cl)C(Cl)CC1Cl (stereo unspecified) , report TGI. 29.8 µM

# return recorded TGI for input CCOC(=O)c1c(-c2ccccc2)c(C)cn1C > 10 µM

Determine its reported TGI: C=CCN=C(N/N=C/c1ccc([N+](=O)[O-])o1)NS(=O)(=O)c1cc(C(=O)Nc2ccccc2)c(Cl)cc1SCC(N)=O > 100 µM

Write down TGI measured for item COc1cc2cc3c(c(O)c2c(O)c1-c1c(OC)cc2cc4c(c(O)c2c1O)C(=O)O[C@H](C)C4)C(=O)O[C@H](C)C3 > 100 µM

Fill in reported TGI for this entry: Nc1ncnc2c1nc(Cl)n2C1OC(CO)C(O)C1O (stereo unspecified) > 100 µM

Give TGI for Cc1cc(Nc2ccc(Cl)cc2)nc(NCCCNc2ccnc3cc(Cl)ccc23)n1 2.96 µM

Look up and state reported TGI for O=S(=O)(O)c1cc(O)c(N=Nc2ccc3ccccc3c2O)c2ccccc12 65 µM

Answer with reported TGI of c1ccc2c3c([nH]c2c1)C1C2CCCCN2C(c2ccncc2)N1CC3 (stereo unspecified) 34.8 µM

# return recorded TGI for input COC(=O)c1sc(=NC(=S)N2CCCCC2)sc1C(=O)OC > 100 µM

---

Measured TGI of individual entries
test system: U251 CNS; test: NCI tumour cell line growth inhibition, 48 h

Example cases with answers are listed next.
Nc1ncnc2c1nc(Cl)n2C1OC(CO)C(O)C1O (stereo unspecified)    > 100 µM
CN(/N=C\c1ccc2ccccc2c1)C1=NCCCN1    96.6 µM
CC(CC=O)Nc1nn2c(=O)c3ccccc3nc2s1 (stereo unspecified)    > 100 µM

# context switch: different compound, same TGI
Retrieve TGI measured for Cc1ccc2nc(C(=O)O)c(=O)[nH]c2c1 and print it. > 100 µM

---

test system: HOP-92 NSCLC; test: NCI tumour cell line growth inhibition, 48 h
PROPERTY_MEASURED: TGI (µM)
Give the value, in units of µM, as a plain number.

Use the examples below as a reference point.
CCC1CN2CCc3c([nH]c4ccccc34)[C@@](C(=O)OC)(c3cc4c(cc3OC)N(C)C3C(O)(C(=O)OC)C(C(=O)OC)C5(CC)C=CCN6CCC43C65)C[C@@H](C2)[C@@H]1C(C)(C)C (stereo partly drawn)    8.19
CCSc1ncc(Br)c(Sc2nc(N)nc3nc[nH]c23)n1    43.4
CCCCCCCCCCCCCCCC(=O)OCC1OC(n2cc(F)c(=O)[nH]c2=O)C(NC(=O)N(CCCl)N=O)C(O)C1O (stereo not drawn)    11.6
O=C(Oc1ccc2c(c1)CN(Cc1ccccc1)CO2)c1ccccc1    28.2

Specify TGI for Cc1cc(Nc2ccc(Cl)cc2)nc(NCCCNc2ccnc3cc(Cl)ccc23)n1 and stop. 2.53

The reported numbers originate from PubChem BioAssay (NCI).
